# Study target: Mitogen-activated protein kinase kinase kinase kinase 1 (Homo sapiens)
# Sequence (Q92918 whole entry): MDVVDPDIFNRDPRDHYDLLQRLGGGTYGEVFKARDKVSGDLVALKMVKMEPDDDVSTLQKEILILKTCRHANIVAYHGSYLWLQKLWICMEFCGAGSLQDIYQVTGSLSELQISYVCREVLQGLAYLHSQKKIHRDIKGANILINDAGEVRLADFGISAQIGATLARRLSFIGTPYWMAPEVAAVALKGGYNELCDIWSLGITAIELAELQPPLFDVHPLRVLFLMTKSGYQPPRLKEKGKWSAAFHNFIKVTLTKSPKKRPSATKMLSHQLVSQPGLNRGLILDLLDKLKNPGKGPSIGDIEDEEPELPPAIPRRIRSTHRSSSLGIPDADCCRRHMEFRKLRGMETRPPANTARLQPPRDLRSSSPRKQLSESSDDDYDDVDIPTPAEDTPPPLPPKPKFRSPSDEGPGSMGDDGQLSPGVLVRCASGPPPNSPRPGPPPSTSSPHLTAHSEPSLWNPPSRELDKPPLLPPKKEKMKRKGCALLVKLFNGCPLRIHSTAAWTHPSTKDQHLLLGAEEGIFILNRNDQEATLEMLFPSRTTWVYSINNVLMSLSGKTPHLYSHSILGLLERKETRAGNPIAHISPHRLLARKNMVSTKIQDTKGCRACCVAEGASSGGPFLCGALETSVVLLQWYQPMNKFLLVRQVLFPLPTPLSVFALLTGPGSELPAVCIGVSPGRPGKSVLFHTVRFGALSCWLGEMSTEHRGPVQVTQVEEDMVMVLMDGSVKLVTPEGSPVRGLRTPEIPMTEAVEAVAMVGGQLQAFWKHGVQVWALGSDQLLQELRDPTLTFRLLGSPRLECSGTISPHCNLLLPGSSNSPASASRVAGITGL
# Procedure details: Enzymatic Activity Assay: The enzymatic activity of Wild Type HPK1 (MAP4K1) Kinase was measured in the presence or absence of an inhibitor compound of the present disclosure by preparation of a reaction mixture containing a fluorescein tagged peptide (2 micromolar final concentration), ATP (Adenosine Triphosphate, 500 micromolar final concentration) and Wild Type kinase (6 nM final concentration) in a buffer system comprising 50 mM HEPES (Buffer), 3 mM MgCl2, 5% w/v Trehalose, 0.01% Brij 35 (Detergent), 0.1% Pluronic F127 (Surfactant), 0.1 mM EDTA (Ethylenediaminetetraacetic acid), 0.1 mM EGTA (ethylene glycol-bis(β-aminoethyl ether)-N,N,N′,N′-tetraacetic acid) and 1 mM DTT (Dithiothreitol) and at a pH of 7.4. The reactions were quenched by the addition of EDTA to a final concentration of 25 mM. A Caliper EZ reader was used to measure the extent of substrate to product conversion.The peptide substrate used in the HPK1 assay was designed based on the amino acid sequence surrounding serine residue 376 of SLP76-Lymphocyte cytosolic protein 2 (a known intracellular substrate of HPK1). This sequence SSFPQSAsLPPYFSQ was modified as follows for use in Caliper assays of HPK1: the serine residues on either side of serine 376 were replaced with alanine, three lysine residues were added at the N-terminus and a fluorescein tag (FAM) was attached to the C-terminus to produce the sequence, FAM-FPQAAsLPPYFAKKK.
Parameter measured: IC50

Recorded result, `CN1CCc2cc(Nc3ncc(Cl)c(Nc4ccccc4P(C)(C)=O)n3)c(Cl)cc2C1` , IC50: < 5 nM
